Target: full-length kinase/Nluc fusion proteins (Homo sapiens, UniProt P42338)
Sequence (P42338 whole entry, the tested form may be a part): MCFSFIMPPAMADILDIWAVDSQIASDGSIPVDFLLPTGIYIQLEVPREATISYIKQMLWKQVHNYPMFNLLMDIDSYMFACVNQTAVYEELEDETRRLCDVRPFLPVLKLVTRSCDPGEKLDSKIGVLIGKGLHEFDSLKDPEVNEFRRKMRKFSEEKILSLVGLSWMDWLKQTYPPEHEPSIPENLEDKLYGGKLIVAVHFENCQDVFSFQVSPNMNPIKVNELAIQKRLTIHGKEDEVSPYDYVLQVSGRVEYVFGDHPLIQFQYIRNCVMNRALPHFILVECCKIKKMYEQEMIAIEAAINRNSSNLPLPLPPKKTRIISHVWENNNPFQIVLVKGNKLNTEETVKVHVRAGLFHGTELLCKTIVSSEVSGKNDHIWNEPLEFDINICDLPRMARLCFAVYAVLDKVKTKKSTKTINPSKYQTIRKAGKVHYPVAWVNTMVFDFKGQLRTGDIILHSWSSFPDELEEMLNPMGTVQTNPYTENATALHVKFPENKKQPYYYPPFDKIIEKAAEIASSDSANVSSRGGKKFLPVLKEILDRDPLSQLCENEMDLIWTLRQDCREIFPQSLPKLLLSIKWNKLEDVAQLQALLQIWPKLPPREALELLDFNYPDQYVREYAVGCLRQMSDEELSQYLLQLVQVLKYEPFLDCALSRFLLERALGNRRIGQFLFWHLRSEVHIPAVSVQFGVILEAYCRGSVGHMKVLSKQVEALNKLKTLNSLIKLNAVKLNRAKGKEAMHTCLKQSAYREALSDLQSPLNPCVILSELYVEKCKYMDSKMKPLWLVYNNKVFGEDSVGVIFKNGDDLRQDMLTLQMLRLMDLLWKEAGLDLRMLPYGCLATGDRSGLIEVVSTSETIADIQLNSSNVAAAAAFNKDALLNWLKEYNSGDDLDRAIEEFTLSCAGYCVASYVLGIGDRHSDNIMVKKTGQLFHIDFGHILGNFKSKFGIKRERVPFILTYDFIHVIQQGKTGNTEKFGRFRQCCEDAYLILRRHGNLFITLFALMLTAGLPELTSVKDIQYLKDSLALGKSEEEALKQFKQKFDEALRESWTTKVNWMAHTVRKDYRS
Assay: Apparent affinity (EC50) of energy transfer probes by titration onto live HEK293 cells expressing kinase/Nluc fusions (Table S1)
Type: binding
Details: PIK3CB, Nluc N; read-out: Probe EC50

{"molecule": "O=C(CCc1ccc2n1[B-](F)(F)[N+]1=C(c3ccc[nH]3)C=CC1=C2)N1CCN(Cc2cc3nc(-c4cccc(O)c4)nc(N4CCOCC4)c3s2)CC1 [Energy Transfer Probe 3]", "EC50": "> 1000 nM"}

====

Molecular target: full-length kinase/Nluc fusion proteins (Homo sapiens, UniProt O94804)
Sequence (O94804 whole entry, the tested form may be a part): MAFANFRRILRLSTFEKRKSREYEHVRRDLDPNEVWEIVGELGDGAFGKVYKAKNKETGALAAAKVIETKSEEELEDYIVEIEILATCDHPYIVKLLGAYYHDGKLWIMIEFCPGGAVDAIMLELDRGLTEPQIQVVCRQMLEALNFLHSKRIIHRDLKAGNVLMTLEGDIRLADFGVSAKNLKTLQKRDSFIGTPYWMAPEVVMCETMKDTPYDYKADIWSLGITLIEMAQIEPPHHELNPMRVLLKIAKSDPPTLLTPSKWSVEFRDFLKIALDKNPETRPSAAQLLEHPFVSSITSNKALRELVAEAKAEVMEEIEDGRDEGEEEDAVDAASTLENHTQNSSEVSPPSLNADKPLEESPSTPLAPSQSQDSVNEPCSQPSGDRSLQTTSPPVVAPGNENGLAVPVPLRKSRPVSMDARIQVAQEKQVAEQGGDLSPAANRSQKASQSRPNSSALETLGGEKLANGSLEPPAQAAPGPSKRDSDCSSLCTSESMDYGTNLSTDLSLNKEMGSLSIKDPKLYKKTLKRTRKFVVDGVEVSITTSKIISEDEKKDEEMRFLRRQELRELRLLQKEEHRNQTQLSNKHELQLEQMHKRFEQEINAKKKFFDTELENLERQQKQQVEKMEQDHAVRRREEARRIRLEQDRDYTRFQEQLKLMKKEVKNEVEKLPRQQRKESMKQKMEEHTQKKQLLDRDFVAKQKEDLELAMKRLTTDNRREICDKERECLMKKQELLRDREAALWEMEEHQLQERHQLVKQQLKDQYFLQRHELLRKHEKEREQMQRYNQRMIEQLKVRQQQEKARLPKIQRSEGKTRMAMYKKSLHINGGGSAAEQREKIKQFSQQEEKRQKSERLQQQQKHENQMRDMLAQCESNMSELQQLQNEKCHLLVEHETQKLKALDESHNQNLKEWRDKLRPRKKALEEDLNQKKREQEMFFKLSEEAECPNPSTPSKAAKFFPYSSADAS
Assay: Apparent affinity (EC50) of energy transfer probes by titration onto live HEK293 cells expressing kinase/Nluc fusions (Table S1)
Settings: STK10 (NP_005981), Nluc orientation N; read-out: Probe EC50

{"compound": "Cc1ccc(C(=O)Nc2ccc(CN3CCN(CCCNC(=O)CCc4ccc5n4[B-](F)(F)[N+]4=C(c6ccc[nH]6)C=CC4=C5)CC3)c(C(F)(F)F)c2)cc1C#Cc1cnc2cccnn12 [Energy Transfer Probe 4]", "target.desc": "full-length kinase/Nluc fusion proteins (Homo sapiens, UniProt O94804)", "EC50 [µM]": 0.07}

====

Molecular target: full-length kinase/Nluc fusion proteins (Homo sapiens)
Sequence (Q9NWZ3 1-460): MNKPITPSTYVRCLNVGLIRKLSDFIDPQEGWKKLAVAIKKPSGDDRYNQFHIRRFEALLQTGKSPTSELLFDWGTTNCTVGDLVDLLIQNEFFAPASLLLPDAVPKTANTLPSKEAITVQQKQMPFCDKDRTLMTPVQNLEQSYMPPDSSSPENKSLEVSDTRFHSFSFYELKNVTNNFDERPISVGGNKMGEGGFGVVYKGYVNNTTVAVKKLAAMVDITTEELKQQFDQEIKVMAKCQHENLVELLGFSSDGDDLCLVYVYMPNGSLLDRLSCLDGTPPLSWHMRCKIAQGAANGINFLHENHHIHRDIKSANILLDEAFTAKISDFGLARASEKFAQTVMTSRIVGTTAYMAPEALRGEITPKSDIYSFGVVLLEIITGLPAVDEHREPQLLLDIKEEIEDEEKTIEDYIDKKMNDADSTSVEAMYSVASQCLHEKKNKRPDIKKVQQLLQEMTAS
Assay: Apparent affinity (EC50) of energy transfer probes by titration onto live HEK293 cells expressing kinase/Nluc fusions (Table S1)
Conditions: IRAK4, Nluc C; read-out: Probe EC50

{"compound": "CNC(=O)c1ccccc1Nc1nc(Nc2ccc(N3CCN(C(=O)CCOCCOCCOCCOCCNC(=O)CCc4ccc5n4[B-](F)(F)[N+]4=C(c6ccc[nH]6)C=CC4=C5)CC3)cc2)ncc1Cl [Energy Transfer Probe 5]", "EC50": "> 1000 nM"}

====

Target: full-length kinase/Nluc fusion proteins (Homo sapiens, UniProt O60674)
Sequence (O60674 whole entry, the tested form may be a part): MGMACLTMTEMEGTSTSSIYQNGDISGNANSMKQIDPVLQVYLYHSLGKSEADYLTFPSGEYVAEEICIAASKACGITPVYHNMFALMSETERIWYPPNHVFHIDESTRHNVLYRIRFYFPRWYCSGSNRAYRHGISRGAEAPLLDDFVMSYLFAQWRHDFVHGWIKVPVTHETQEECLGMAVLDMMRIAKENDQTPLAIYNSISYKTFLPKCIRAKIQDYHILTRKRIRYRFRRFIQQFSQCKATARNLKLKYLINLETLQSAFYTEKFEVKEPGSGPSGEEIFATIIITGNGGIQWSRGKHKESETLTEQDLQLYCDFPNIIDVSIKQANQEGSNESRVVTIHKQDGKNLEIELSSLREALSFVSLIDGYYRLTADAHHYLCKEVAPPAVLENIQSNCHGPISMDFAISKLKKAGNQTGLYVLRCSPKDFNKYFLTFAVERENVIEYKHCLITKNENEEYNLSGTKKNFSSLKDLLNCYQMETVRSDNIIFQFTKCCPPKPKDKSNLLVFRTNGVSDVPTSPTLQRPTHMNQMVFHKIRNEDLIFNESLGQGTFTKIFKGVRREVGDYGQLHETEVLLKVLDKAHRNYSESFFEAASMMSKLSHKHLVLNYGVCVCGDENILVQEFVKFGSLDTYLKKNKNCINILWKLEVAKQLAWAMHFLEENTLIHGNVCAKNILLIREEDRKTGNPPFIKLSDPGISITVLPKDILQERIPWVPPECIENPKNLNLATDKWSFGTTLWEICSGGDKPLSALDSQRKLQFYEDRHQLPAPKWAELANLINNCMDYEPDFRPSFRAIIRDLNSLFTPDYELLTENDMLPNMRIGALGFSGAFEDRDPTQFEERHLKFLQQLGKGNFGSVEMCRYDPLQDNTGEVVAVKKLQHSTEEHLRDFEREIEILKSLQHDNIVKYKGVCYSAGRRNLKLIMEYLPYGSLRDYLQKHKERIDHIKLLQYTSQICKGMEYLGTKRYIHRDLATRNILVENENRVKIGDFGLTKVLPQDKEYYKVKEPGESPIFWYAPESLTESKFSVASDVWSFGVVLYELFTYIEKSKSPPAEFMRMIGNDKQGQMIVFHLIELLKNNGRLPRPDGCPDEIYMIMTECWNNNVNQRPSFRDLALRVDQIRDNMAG
Experiment: Apparent affinity (EC50) of energy transfer probes by titration onto live HEK293 cells expressing kinase/Nluc fusions (Table S1)
Type: binding
Conditions: JAK2, Nluc C; read-out: Probe EC50
pEC50: −log10 of the molar value.

{"compound": "CNC(=O)c1ccccc1Nc1nc(Nc2ccc(N3CCN(C(=O)CCOCCOCCOCCOCCNC(=O)CCc4ccc5n4[B-](F)(F)[N+]4=C(c6ccc[nH]6)C=CC4=C5)CC3)cc2)ncc1Cl [Energy Transfer Probe 5]", "pEC50": "< 6.00"}

====

Molecular target: full-length kinase/Nluc fusion proteins (Homo sapiens, UniProt Q9BYT3)
Sequence (Q9BYT3 whole entry, the tested form may be a part): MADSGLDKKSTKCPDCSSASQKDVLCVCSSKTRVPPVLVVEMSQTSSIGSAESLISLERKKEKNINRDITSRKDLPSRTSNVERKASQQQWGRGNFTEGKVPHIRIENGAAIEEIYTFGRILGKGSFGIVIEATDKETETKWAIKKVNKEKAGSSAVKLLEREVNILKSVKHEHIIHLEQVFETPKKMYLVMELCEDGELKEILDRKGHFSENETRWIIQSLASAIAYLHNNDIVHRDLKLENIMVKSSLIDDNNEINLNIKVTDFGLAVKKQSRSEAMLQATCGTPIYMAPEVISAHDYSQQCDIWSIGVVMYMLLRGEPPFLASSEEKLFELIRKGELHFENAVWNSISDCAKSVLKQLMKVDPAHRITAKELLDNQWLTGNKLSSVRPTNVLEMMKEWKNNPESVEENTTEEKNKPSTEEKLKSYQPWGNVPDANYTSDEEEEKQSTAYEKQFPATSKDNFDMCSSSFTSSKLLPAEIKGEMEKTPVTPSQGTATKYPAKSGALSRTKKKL
Assay: Apparent affinity (EC50) of energy transfer probes by titration onto live HEK293 cells expressing kinase/Nluc fusions (Table S1)
Settings: STK33 (NP_001275990), Nluc orientation N; read-out: Probe EC50
pEC50: −log10 of the molar value.

{"compound": "CNC(=O)c1ccccc1Nc1nc(Nc2ccc(N3CCN(C(=O)CCOCCOCCOCCOCCNC(=O)CCc4ccc5n4[B-](F)(F)[N+]4=C(c6ccc[nH]6)C=CC4=C5)CC3)cc2)ncc1Cl [Energy Transfer Probe 5]", "pEC50": 6.40}

====

Biological target: full-length kinase/Nluc fusion proteins (Homo sapiens, UniProt P08581)
Sequence (P08581 25-1390): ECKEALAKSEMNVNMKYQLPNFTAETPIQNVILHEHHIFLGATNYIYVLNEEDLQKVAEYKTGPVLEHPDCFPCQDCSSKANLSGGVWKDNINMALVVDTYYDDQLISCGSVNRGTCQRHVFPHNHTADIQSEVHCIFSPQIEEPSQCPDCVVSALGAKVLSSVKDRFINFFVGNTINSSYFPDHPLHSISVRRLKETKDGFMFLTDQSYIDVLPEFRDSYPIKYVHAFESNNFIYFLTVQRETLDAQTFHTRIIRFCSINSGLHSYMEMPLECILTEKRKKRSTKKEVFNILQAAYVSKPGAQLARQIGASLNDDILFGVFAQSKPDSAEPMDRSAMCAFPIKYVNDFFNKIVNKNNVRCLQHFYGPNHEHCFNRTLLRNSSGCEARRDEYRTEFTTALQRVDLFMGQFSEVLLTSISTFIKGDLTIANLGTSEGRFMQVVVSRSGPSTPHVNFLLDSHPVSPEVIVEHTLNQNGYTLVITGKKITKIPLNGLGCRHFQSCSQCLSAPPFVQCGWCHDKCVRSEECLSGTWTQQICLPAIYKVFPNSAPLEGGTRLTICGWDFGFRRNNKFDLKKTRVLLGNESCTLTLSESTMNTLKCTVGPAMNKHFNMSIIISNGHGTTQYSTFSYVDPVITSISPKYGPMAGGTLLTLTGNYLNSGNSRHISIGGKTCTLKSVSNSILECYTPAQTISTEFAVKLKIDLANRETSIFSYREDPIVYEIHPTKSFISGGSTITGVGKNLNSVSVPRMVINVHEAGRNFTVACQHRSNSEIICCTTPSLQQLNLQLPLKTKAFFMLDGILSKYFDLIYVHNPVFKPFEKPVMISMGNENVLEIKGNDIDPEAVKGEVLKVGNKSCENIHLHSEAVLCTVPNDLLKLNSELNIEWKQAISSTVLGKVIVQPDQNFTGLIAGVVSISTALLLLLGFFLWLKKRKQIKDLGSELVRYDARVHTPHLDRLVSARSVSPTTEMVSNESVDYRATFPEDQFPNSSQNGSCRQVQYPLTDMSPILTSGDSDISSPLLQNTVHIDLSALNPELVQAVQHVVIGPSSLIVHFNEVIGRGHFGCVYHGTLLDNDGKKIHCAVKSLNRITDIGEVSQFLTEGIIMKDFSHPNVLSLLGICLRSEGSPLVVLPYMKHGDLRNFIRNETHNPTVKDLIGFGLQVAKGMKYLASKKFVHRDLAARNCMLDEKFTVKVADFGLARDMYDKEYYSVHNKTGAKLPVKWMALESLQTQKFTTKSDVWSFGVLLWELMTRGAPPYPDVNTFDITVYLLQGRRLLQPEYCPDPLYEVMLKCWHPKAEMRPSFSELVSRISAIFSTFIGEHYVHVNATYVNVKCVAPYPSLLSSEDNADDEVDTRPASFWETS
Assay: Apparent affinity (EC50) of energy transfer probes by titration onto live HEK293 cells expressing kinase/Nluc fusions (Table S1)
Conditions: MET, Nluc C; read-out: Probe EC50

{"compound": "CNC(=O)c1ccccc1Nc1nc(Nc2ccc(N3CCN(C(=O)CCOCCOCCOCCOCCNC(=O)CCc4ccc5n4[B-](F)(F)[N+]4=C(c6ccc[nH]6)C=CC4=C5)CC3)cc2)ncc1Cl [Energy Transfer Probe 5]", "EC50": "400 nM"}
